B1: glmS ribozyme (parent)
chain: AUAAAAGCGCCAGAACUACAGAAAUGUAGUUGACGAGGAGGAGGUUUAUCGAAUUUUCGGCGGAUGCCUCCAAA

Variants of: B1
protocolSummary: kcat; higher = faster cleavage; RNA array
experimentalSetup: with glucosamine-6-phosphate
This sample holds only a part of the variants without activity.
reportedMetric: kcat (s⁻¹)
Report as a plain number; the unit s⁻¹ is understood.

As a guide, the following entries are already answered.
{"changes": "G41A U49G", "unitAbbreviation": "s⁻¹", "val": "3.79e-05"}
{"changes": "U31C U46G", "unitAbbreviation": "s⁻¹", "val": 0.000788}

For the next question, use this variant.
Exercise: Looking for the measured kcat of A14U G32A , can you help?
Key: 0.0126
